# assay-overview: NBPT comparative solubility in solvents
# Type: physicochemical
# reported-conditions: room temperature; vials with 20, 30, 40 and 50 wt. % NBPT
Below: a set of entries, each annotated with reported maximum weight percentage of NBPT dissolved in the solvent.
recorded-metric: maximum weight percentage of NBPT dissolved in the solvent (%)

molecule="COC(=O)C(C)CCC(=O)N(C)C (stereo not shown)" comparator== test_result=30
molecule="CN1CCCCCC1=O [N-methylcaprolactam]" comparator== test_result=50
molecule="CCCCN1CCCC1=O [N-butyl-2-pyrrolidone]" comparator== test_result=50
molecule="CCCC(=O)OC1CCCCC1 [cyclohexyl butyrate]" comparator=< test_result=20
molecule="CC(=O)OC1CCCCC1 [cyclohexyl acetate]" comparator=< test_result=20
molecule="CCCCN1CCCCCC1=O [N-butylcaprolactam]" comparator== test_result=40
molecule="N#CCCN1CCCCCC1=O [N-(2-cyanoethyl)caprolactam]" comparator=< test_result=20
molecule="CCN1CCCCCC1=O [N-ethylcaprolactam]" comparator== test_result=50
molecule="COC(=O)CCCCC(=O)N(C)C [N,N-dimethyladipamide methyl ester]" comparator== test_result=40
molecule="CCCCCCCCCC(=O)N(C)C [N,N-dimethyldecanamide]" comparator== test_result=20
molecule="COC1CCCCC1 [cyclohexyl methyl ether]" comparator=< test_result=20
molecule="O=C1CCCCC1 [cyclohexanone]" comparator== test_result=40
molecule="CN1CCCC1=O [N-methyl-2-pyrrolidone]" comparator== test_result=50

Each recorded value in this set is attributed to patent US20190077724A1.
